System: c-Kit1
Assay Name: CD melting experiments, c-Kit1 GQ
Assay type: binding
Condition: 2 molar equiv compound, T1/2 of DNA alone 55.0 °C
# ΔT1/2 c-Kit1 annotations

- Compound: "COc1ccc2cc3[n+](cc2c1OCCCCn1cc(COc2ccc(S(N)(=O)=O)cc2)nn1)CCc1cc2c(cc1-3)OCO2 [Compound 31]"
  Target: "c-Kit1"
  ΔT1/2 c-Kit1 / °C: 15.5
- Compound: "COc1ccc2cc3[n+](cc2c1OC)CCc1cc2c(cc1-3)OCO2 [Berberine, berberine, reference compound]"
  Target: "c-Kit1"
  ΔT1/2 c-Kit1 / °C: 13.0
- Compound: "COc1ccc2cc3[n+](cc2c1OCCn1cc(-c2ccc(S(N)(=O)=O)cc2)nn1)CCc1cc2c(cc1-3)OCO2 [Compound 26]"
  Target: "c-Kit1"
  ΔT1/2 c-Kit1 / °C: 22.0
- Compound: "COc1ccc2cc3[n+](cc2c1OCc1cn(CCCCOc2ccc4ccc(=O)oc4c2)nn1)CCc1cc2c(cc1-3)OCO2 [Compound 43]"
  Target: "c-Kit1"
  ΔT1/2 c-Kit1 / °C: 16.5
- Compound: "COc1ccc2cc3[n+](cc2c1OCCCCn1cc(COc2ccc4ccc(=O)oc4c2)nn1)CCc1cc2c(cc1-3)OCO2 [Compound 37]"
  Target: "c-Kit1"
  ΔT1/2 c-Kit1 / °C: 17.5
- Compound: "COc1ccc2cc3[n+](cc2c1OCCCCn1cc(CCOc2ccc4ccc(=O)oc4c2)nn1)CCc1cc2c(cc1-3)OCO2 [Compound 38]"
  Target: "c-Kit1"
  ΔT1/2 c-Kit1 / °C: 17.5
- Compound: "COc1ccc2cc3[n+](cc2c1OCc1cn(CCCCCOc2ccc4ccc(=O)oc4c2)nn1)CCc1cc2c(cc1-3)OCO2 [Compound 44]"
  Target: "c-Kit1"
  ΔT1/2 c-Kit1 / °C: 17.5
- Compound: "COc1ccc2cc3[n+](cc2c1OCc1cn(-c2cccc(S(N)(=O)=O)c2)nn1)CCc1cc2c(cc1-3)OCO2 [Compound 40]"
  Target: "c-Kit1"
  ΔT1/2 c-Kit1 / °C: 16.0
